# conditionsUsed: in n-propanol, 288.15 K
propertyLabel: solubility (mole fraction)
The answer should be a number; do not append a unit.

Lab note: CC(=O)N(CC(O)CO)c1c(I)c(C(=O)NCC(O)CO)c(I)c(C(=O)NCC(O)CO)c1I (stereo unspecified) gave solubility (mole fraction) of 0.000804
